The measurements presented in this section are drawn from the supplement of paper PMC10219994.

Answer each item with its documented ligation selection enrichment.
B1: library; a variant is named by its letters at N, in order (parent)
chain: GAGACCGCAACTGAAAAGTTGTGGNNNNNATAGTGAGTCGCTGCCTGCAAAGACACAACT

- Variants of: B1
- test_details: ligation selection enrichment (abundance after / before one-round selection) (fold); higher = more template-directed ligation activity
- condition_parameters: with T7Psub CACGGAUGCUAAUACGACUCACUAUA; MgCl2 25 mM; 42 °C; 4 h; pH 8.5

Input line: Reported ligation selection enrichment, variant CGATC : ____
Output line: 0.294

Input line: Reported ligation selection enrichment, variant CATTG : ____
Output line: 1.24

Input line: Reported ligation selection enrichment, variant GAACA : ____
Output line: 0.191

Input line: Reported ligation selection enrichment, variant AGCAC : ____
Output line: 0.319

Input line: Reported ligation selection enrichment, variant GGTCC : ____
Output line: 0.277

Input line: Reported ligation selection enrichment, variant CGTAT : ____
Output line: 4.81

Input line: Reported ligation selection enrichment, variant CTGAG : ____
Output line: 0.724

Input line: Reported ligation selection enrichment, variant TGCAT : ____
Output line: 3.27

Input line: Reported ligation selection enrichment, variant GTAAG : ____
Output line: 0.509

Input line: Reported ligation selection enrichment, variant CAGCC : ____
Output line: 0.14

Input line: Reported ligation selection enrichment, variant CCAGG : ____
Output line: 0.178

Input line: Reported ligation selection enrichment, variant CACCT : ____
Output line: 0.334

Input line: Reported ligation selection enrichment, variant CCAAT : ____
Output line: 3.42

Input line: Reported ligation selection enrichment, variant TTCCT : ____
Output line: 0.443

Input line: Reported ligation selection enrichment, variant CCCTC : ____
Output line: 0.14

Input line: Reported ligation selection enrichment, variant ATGAG : ____
Output line: 0.834

Input line: Reported ligation selection enrichment, variant ATCAA : ____
Output line: 0.518

Input line: Reported ligation selection enrichment, variant CCTCC : ____
Output line: 0.347

Input line: Reported ligation selection enrichment, variant TCTAT : ____
Output line: 0.102

Input line: Reported ligation selection enrichment, variant TTGAT : ____
Output line: 29.9

Input line: Reported ligation selection enrichment, variant TAATC : ____
Output line: 0.111

Input line: Reported ligation selection enrichment, variant CAGAG : ____
Output line: 0.399

Input line: Reported ligation selection enrichment, variant CGACA : ____
Output line: 0.411

Input line: Reported ligation selection enrichment, variant ATCAC : ____
Output line: 0.175

Input line: Reported ligation selection enrichment, variant CGTCT : ____
Output line: 0.522

Input line: Reported ligation selection enrichment, variant ATTAC : ____
Output line: 0.217

Input line: Reported ligation selection enrichment, variant GGGAA : ____
Output line: 6.05

Input line: Reported ligation selection enrichment, variant ACTCC : ____
Output line: 0.321

Input line: Reported ligation selection enrichment, variant GTGGT : ____
Output line: 0.274

Input line: Reported ligation selection enrichment, variant TCCAT : ____
Output line: 0.303

Input line: Reported ligation selection enrichment, variant TCCGT : ____
Output line: 0.123

Input line: Reported ligation selection enrichment, variant TCGAC : ____
Output line: 1.74

Input line: Reported ligation selection enrichment, variant ACTTC : ____
Output line: 0.192

Input line: Reported ligation selection enrichment, variant GAAAT : ____
Output line: 0.55

Input line: Reported ligation selection enrichment, variant ACCTA : ____
Output line: 0.18

Input line: Reported ligation selection enrichment, variant TTCGC : ____
Output line: 0.331

Input line: Reported ligation selection enrichment, variant TAGTA : ____
Output line: 0.19

Input line: Reported ligation selection enrichment, variant ACTTT : ____
Output line: 0.465

Input line: Reported ligation selection enrichment, variant ATTAT : ____
Output line: 1.85

Input line: Reported ligation selection enrichment, variant AATCA : ____
Output line: 0.454

Input line: Reported ligation selection enrichment, variant CATCT : ____
Output line: 0.541

Input line: Reported ligation selection enrichment, variant CTGAA : ____
Output line: 0.424

Input line: Reported ligation selection enrichment, variant ACACC : ____
Output line: 0.132

Input line: Reported ligation selection enrichment, variant CGAGG : ____
Output line: 0.422

Input line: Reported ligation selection enrichment, variant GCGCC : ____
Output line: 0.191

Input line: Reported ligation selection enrichment, variant AGAGG : ____
Output line: 0.288

Input line: Reported ligation selection enrichment, variant GCACA : ____
Output line: 0.175

Input line: Reported ligation selection enrichment, variant CACGT : ____
Output line: 0.156

Input line: Reported ligation selection enrichment, variant GGCCA : ____
Output line: 0.241

Input line: Reported ligation selection enrichment, variant AGGAG : ____
Output line: 0.806

Input line: Reported ligation selection enrichment, variant CAAGG : ____
Output line: 0.2

Input line: Reported ligation selection enrichment, variant TTACT : ____
Output line: 0.603

Input line: Reported ligation selection enrichment, variant TCTGC : ____
Output line: 0.143

Input line: Reported ligation selection enrichment, variant GTAGA : ____
Output line: 1.05

Input line: Reported ligation selection enrichment, variant GATTA : ____
Output line: 0.278

Input line: Reported ligation selection enrichment, variant ATCTA : ____
Output line: 0.203

Input line: Reported ligation selection enrichment, variant GTCAT : ____
Output line: 0.373

Input line: Reported ligation selection enrichment, variant TGAAG : ____
Output line: 0.271

Input line: Reported ligation selection enrichment, variant GTCTT : ____
Output line: 0.114

Input line: Reported ligation selection enrichment, variant CGAAG : ____
Output line: 0.42

Input line: Reported ligation selection enrichment, variant TTTCG : ____
Output line: 0.632

Input line: Reported ligation selection enrichment, variant AAGCT : ____
Output line: 0.56

Input line: Reported ligation selection enrichment, variant CTCTT : ____
Output line: 0.133

Input line: Reported ligation selection enrichment, variant TGAGA : ____
Output line: 0.376
